- TESTED_SYSTEM: ErbB-3 receptor-Ig fusion (human, UniProt P21860 20-643; P21860 20-636)
- Sequence (P21860 other isoform, or with tags, fused parts or gaps): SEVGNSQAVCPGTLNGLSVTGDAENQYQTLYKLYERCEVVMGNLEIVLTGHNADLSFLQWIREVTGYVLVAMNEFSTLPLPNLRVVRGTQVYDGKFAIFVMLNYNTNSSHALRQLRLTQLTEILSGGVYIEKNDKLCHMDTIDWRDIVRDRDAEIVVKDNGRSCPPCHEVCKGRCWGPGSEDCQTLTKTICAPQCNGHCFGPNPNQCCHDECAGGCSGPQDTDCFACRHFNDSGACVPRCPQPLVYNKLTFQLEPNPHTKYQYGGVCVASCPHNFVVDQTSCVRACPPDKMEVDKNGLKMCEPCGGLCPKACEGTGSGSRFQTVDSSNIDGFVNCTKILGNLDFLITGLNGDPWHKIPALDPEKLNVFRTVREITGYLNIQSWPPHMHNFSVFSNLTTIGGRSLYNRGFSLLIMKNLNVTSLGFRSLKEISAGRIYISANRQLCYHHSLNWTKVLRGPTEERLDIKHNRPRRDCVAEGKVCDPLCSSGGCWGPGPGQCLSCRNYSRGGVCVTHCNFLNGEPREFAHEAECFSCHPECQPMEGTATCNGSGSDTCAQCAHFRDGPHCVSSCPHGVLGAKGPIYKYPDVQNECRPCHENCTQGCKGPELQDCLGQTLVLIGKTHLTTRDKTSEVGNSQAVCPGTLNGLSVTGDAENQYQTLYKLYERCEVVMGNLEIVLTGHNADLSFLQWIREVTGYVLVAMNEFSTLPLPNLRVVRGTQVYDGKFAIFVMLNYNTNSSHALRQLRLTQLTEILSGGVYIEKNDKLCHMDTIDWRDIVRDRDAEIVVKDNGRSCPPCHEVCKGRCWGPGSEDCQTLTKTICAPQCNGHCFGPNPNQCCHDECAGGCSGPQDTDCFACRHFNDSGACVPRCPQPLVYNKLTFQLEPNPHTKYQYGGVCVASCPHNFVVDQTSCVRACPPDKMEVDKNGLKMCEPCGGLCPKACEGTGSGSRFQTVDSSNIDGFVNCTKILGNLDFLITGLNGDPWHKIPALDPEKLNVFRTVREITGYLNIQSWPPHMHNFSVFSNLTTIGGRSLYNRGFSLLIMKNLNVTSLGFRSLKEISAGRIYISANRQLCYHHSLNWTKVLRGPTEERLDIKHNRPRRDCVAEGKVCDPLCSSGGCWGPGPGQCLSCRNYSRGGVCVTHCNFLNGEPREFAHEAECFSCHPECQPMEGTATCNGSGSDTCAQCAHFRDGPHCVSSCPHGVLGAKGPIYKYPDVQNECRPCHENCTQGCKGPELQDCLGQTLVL
- PROTOCOL_NOTES: phage ELISA, competition with soluble ErbB-3-Ig; against HRG8
Ends that are not written are not given here.
Kindly state EC50 (wt)/EC50 (mut) for each of the entries shown.
Answers are plain numbers, in ratio.

INSERT INTO measurements (binder, recorded_number) VALUES
  ('HRG37 combination variant displayed on phage (ligand, not shown: large carriers; small tags and cut ends, ends and bridges not checked, monovalent phage display, pHRG8-g3 background) WELVPCGWDREGFCVNGGECFMVKDLSNPSRYLCKCPNEFTGDRCQNYVIAS-{(GGGS)3-M13 pIII C‑terminal fragment from residue 323}', 13);

Could you report EC50 (wt)/EC50 (mut) for every entry in the following list?
1. HRG-β1 EGF variant B3 displayed on phage (ligand, human, not shown: large carriers, monovalent phage display, pHRG8-g3 background) SHLVKCGEEREGFCVNGGECFMVKDLSNPSRYLCKCPNEFTGDRCQNYVMASGGGSGGGSGGGS
2. HRG-β1 EGF variant D4 displayed on phage (ligand, human, not shown: large carriers, monovalent phage display, pHRG8-g3 background) SHLVKCAEKEKTFCVNGGECYRVKTLSNPSRYLCKCPNEFTGDRCQNYVMASGGGSGGGSGGGS
3. HRG-β1 EGF variant A3 displayed on phage (ligand, human, not shown: large carriers, monovalent phage display, pHRG8-g3 background) WELVPCAEKEKTFCVNGGECFMVKDLSNPSRYLCKCPNEFTGDRCQNYVMASGGGSGGGSGGGS

1. 4.7
2. 2.9
3. 0.96

For each of the binders below, note its EC50 (wt)/EC50 (mut).
1. HRG90 (HRG-β1 EGF Met226Ile) displayed on phage (ligand, human, not shown: large carriers, monovalent phage display) SHLVKCAEKEKTFCVNGGECFMVKDLSNPSRYLCKCPNEFTGDRCQNYVIASGGGSGGGSGGGS
2. HRG73 combination variant displayed on phage (ligand, human, not shown: large carriers, monovalent phage display; also called B3+D4+E2+I2) SHLVKCGEEREGFCVNGGECYRVKTYGYLMCKCPNEFTGDRCQHYVIASGGGSGGGSGGGS
3. HRG-β1 EGF variant E2 displayed on phage (ligand, human, not shown: large carriers, monovalent phage display) SHLVKCAEKEKTFCVNGGECFMVKDYGYLMCKCPNEFTGDRCQNYVMASGGGSGGGSGGGS

[6.3, 56, 28]
